Hey, just so you know, these numbers are from ChEMBL document CHEMBL1201862.

system: ACHN; assay: NCI tumour cell line growth inhibition, 48 h
Active and inactive are the calls of the source. Cut-off read from the data, not from the text of the source: active = GI50 up to about 1.1 µM and inactive = higher. Where a SMILES comes first, the peptide text is derived from it. The star is where a group is joined. Fmoc = O=C(OCC1c2ccccc2-c2ccccc21)*; Boc = CC(C)(C)OC(=O)*
Exercise: for every item that follows, state its recorded GI50.

Ask: Please report the measured GI50 for OCC(O)COc1ccc(Br)cc1 (centres undefined)
Result: > 100 µM (inactive)

Ask: Output GI50 of COc1ccc(/C=C/C(=O)N[C@@H]2C(=O)N3[C@@H]2SC(C)(C)[C@@H]3C(=O)O)cc1OC
Result: > 100 µM (inactive)

Ask: Note GI50 for the molecule shown: Cc1ccc(Cc2c(=O)[nH]nc3ccccc23)cc1
Result: > 100 µM (inactive)

Ask: Write down GI50 measured for item O=c1nc2n(CCO)c(-c3ccccc3)c(-c3ccccc3)nc-2c(=O)[nH]1
Result: > 100 µM (inactive)

Ask: For the molecule CC(C)(C)OC(=O)NCCCCC(NC(=O)C(Cc1c[nH]c2ccccc12)NC(=O)OCC1c2ccccc2-c2ccccc21)C(=O)O (centres undefined) (Fmoc-Trp-Lys(Boc)-OH; configuration not given here) , report GI50.
Result: > 100 µM (inactive)

Ask: // Input: CCOC(=O)/C(O)=C(/C(=O)OC)c1ccc(Cl)cc1 . Output its GI50 only.
Result: > 100 µM (inactive)

Ask: Entry O=C(CC1C(=O)c2ccccc2C1=C1C(=O)c2ccccc2C1=O)c1ccccc1 (centres undefined) needs its GI50 filled in; supply it.
Result: 80.4 µM (inactive)

Ask: Check the records and state GI50 for C=C(C)C1CC2C(C)=C(OC(C)=O)C1n1c(=O)c3cc4ccccc4cc3c(=O)n12 (centres undefined)
Result: > 82.8 µM (inactive)

Ask: Determine from records and report GI50 for CCCCCCCCCC[S+]([O-])CC(CO)NC(=O)/C=C/c1c(C)nc(O)nc1O (centres undefined)
Result: 13.4 µM (inactive)

----------
Field: GI50. Provide a value for each of the compounds that follow.
system: OVCAR-3; assay: NCI tumour cell line growth inhibition, 48 h
The source made the active and inactive calls. Cut-off read from the data, not from the text of the source: active = GI50 up to about 1.1 µM and inactive = higher. *1 amine or outer side, *2 acyl side, *3 side chain or, on linkers, in order; H or OH if unused. Where a SMILES comes first, the peptide text is derived from it. Bridges are numbered along the chain shown (N, C = ends). [ ]: non-standard residue; d: D form. The star is where a group is joined. X36 = O=C(C(CCCCNO[*:3])N[*:1])[*:2]; Fmoc = O=C(OCC1c2ccccc2-c2ccccc21)*

Ask: Note GI50 for the compound shown: Cc1ccc(Cc2c(=O)[nH]nc3ccccc23)cc1
Result: > 100 µM (inactive)

Ask: Give me measured GI50, please, for this compound: Nc1nccc(NCC2(CO)CC(OCc3ccccc3)C2)n1 (centres undefined)
Result: 87.5 µM (inactive)

Ask: Determine its reported GI50: NC(=O)CNC(=O)C1CCCN1C(=O)C1CCCCNOC(=O)CCC(NC(=O)OCC2c3ccccc3-c3ccccc32)C(=O)NC(Cc2c[nH]c3ccccc23)C(=O)N1 (centres undefined) (Fmoc-EW[X36]PG-NH2; ester 1-3; configuration not given here)
Result: > 100 µM (inactive)

Ask: Answer with the recorded GI50 of Clc1ccc2c(c1)C1C(CO2)C(c2ccccc2)=NN1c1ccccc1 (centres undefined) only.
Result: 23 µM (inactive)
